# Tested on: male mice
# EXPERIMENT: acute toxicity, intraperitoneal (lethal doses)
# Assay type: in vivo, mouse
# CONDITION SET: i.p.
Where a name gives a salt, the structure may show the parent alone.
ATTRIBUTE MEASURED: LD-0 (maximum non-lethal dose)

Worked examples, 6 compounds total:
# COMPOUND, RECORDED RESULT
rows = [
    ("CC(=O)Nc1ccc(C(=O)C(C)N2CCOCC2)cc1 (centres unmarked)", "greater than 256 mg/kg"),
    ("CC(=O)Nc1c(Cl)cc(C(=O)C(C)NC(C)C)cc1Cl (centres unmarked) [CRL 41 220, hydrochloride]", "greater than 128 mg/kg"),
    ("CC(=O)Nc1ccc(C(=O)C(C)N2CCCCC2)cc1 (centres unmarked) [CRL 41 240, hydrochloride]", "greater than 256 mg/kg"),
    ("CC(=O)Nc1ccc(C(=O)C(C)N2CCN(C)CC2)cc1 (centres unmarked) [CRL 41 242, dihydrochloride]", "greater than 256 mg/kg"),
    ("CC(=O)Nc1ccc(C(=O)C(C)NC2CC2)cc1 (centres unmarked)", "greater than 256 mg/kg"),
    ("CC(=O)Nc1cccc(C(=O)C(C)NC(C)C)c1 (centres unmarked)", "greater than 256 mg/kg"),
]

Entry under test: CC(=O)Nc1ccc(C(=O)C(C)N(C)C)cc1 (centres unmarked) . Its LD-0 (maximum non-lethal dose) was greater than 128 mg/kg

Cited source for all entries: patent US4963570A
